Source: paper PMC6364417

tested on: 501Mel cells (parental); assay: Dose-response curves and IC50, PrestoBlue cell viability, 72 h; conditions: read-out: Half-maximal inhibitory concentration (IC50); 501Mel parental; 72 h cell viability
Listed here: items and their measured pIC50.
A value of pIC50 is the negative decimal logarithm of a concentration given in moles per litre.

[
  {
    "COMPOUND": "Nc1cc(C(F)(F)F)c(-c2cc(N3CCOCC3)nc(N3CCOCC3)n2)cn1",
    "EXPERIMENTAL ENDPOINT": "pIC50",
    "VALUE REPORTED": 5.93
  }
]

The reported value for Cc1ccc(C(=O)Nc2cccc(C(F)(F)F)c2)cc1Nc1nc(-c2cccnc2)nc2c1cnn2C [NVP-BHG712, reference compound] in terms of pIC50 is 5.35

---

system: 501Mel cells (parental); assay: Kinase inhibitor library screening, PrestoBlue cell viability, 1 or 10 μM, 72 h; conditions: 501Mel Parental; 10μΜ; 72 h; in %
EXPERIMENTAL ENDPOINT: Cell viability in kinase inhibitor library screening, 501Mel Parental, 10μΜ
The answer should be a number; do not append a unit.

Illustrative cases are given below, each with its answer.
[
  {
    "SMILES STRING": "Cc1ccccc1-n1c(Cn2ncc3c(N)ncnc32)nc2cccc(C)c2c1=O",
    "VALUE REPORTED": 99.9
  },
  {
    "SMILES STRING": "NCC(=O)Nc1ccc(-n2nc(C(F)(F)F)cc2-c2ccc3c(ccc4ccccc43)c2)cc1",
    "VALUE REPORTED": 0.3
  },
  {
    "SMILES STRING": "CC(C)(C)Cn1c(N)nc2ccc(-c3[nH]c(C(C)(C)C)nc3-c3ccc(F)cc3)nc21",
    "VALUE REPORTED": 91.9
  }
]

Let us examine a further case.
For record CC[C@@H]1C(=O)N(C)c2cnc(Nc3ccc(C(=O)N[C@H]4CC[C@H](N5CCN(CC6CC6)CC5)CC4)cc3OC)nc2N1C(C)C the listed Cell viability in kinase inhibitor library screening, 501Mel Parental, 10μΜ is 1.3

---

tested on: IGR37-GP cells (Dabrafenib-resistant); assay: Kinase inhibitor library screening, PrestoBlue cell viability, 1 or 10 μM, 72 h; settings: IGR37 GP; 1μΜ; 72 h; in %
// assign t if Cell viability in kinase inhibitor library screening, IGR37 GP, 1μΜ falls strictly below 90, else f (ties count as f)

Does the reported Cell viability in kinase inhibitor library screening, IGR37 GP, 1μΜ of COc1ccc(-c2cc3c(C)nc(N)nc3n([C@H]3CC[C@H](OCCO)CC3)c2=O)cn1 [PF-04691502, reference compound] stay below 90?
t

Say whether its Cell viability in kinase inhibitor library screening, IGR37 GP, 1μΜ is strictly beneath 90. Entry: O=C1NC(=O)/C(=C/c2ccc3nccc(-c4ccncc4)c3c2)S1
t

Quick check: does NCC(=O)Nc1ccc(-n2nc(C(F)(F)F)cc2-c2ccc3c(ccc4ccccc43)c2)cc1 have Cell viability in kinase inhibitor library screening, IGR37 GP, 1μΜ under 90?
f

hey, is Cell viability in kinase inhibitor library screening, IGR37 GP, 1μΜ for Nc1nc(N)c2nc(-c3cccc(O)c3)c(-c3cccc(O)c3)nc2n1 lower than 90 or not?
f

Is the reported Cell viability in kinase inhibitor library screening, IGR37 GP, 1μΜ for O=C1NC(=O)/C(=C/c2ccc3c(c2)OC(F)(F)O3)S1 strictly below 90?
f

Problem: For the molecule O=C(NCCCNc1nc(Nc2cccc(NC(=O)N3CCCC3)c2)ncc1I)c1cccs1 , is Cell viability in kinase inhibitor library screening, IGR37 GP, 1μΜ under 90?
t

State whether 90 exceeds Cell viability in kinase inhibitor library screening, IGR37 GP, 1μΜ recorded for CNC(=O)c1cccc(-c2ccc3c(N4CCOC[C@@H]4C)nc(N4CCOC[C@@H]4C)nc3n2)c1 .
t

Field: below-cutoff. Rule: recorded Cell viability in kinase inhibitor library screening, IGR37 GP, 1μΜ strictly less than 90. Subject: Nc1nc(N)c2nc(-c3cccc(O)c3)cnc2n1
f

Take the molecule O=C1NC(=O)C(=Cc2ccc(-c3ccc(F)cc3)o2)S1 (stereo in doubt) and say whether its Cell viability in kinase inhibitor library screening, IGR37 GP, 1μΜ is less than 90.
f

Input CCC(=O)N1CCN(c2ccc(-n3c(=O)ccc4cnc5ccc(-c6cnc7ccccc7c6)cc5c43)cc2C(F)(F)F)CC1 ; condition: Cell viability in kinase inhibitor library screening, IGR37 GP, 1μΜ strictly below 90. Does it hold?
t

I wonder whether Cn1cnc(N)c2ncnc1-2 has Cell viability in kinase inhibitor library screening, IGR37 GP, 1μΜ below 90. Can you tell?
f

Threshold test, Cell viability in kinase inhibitor library screening, IGR37 GP, 1μΜ < 90: OCCn1cc(-c2ccc3c(c2)CC/C3=N\O)c(-c2ccncc2)n1
f

Determine whether this molecule shows Cell viability in kinase inhibitor library screening, IGR37 GP, 1μΜ lower than 90 (ties excluded): CC(C)(C)c1nc(-c2cccc(NS(=O)(=O)c3c(F)cccc3F)c2F)c(-c2ccnc(N)n2)s1
f

Please check: Cell viability in kinase inhibitor library screening, IGR37 GP, 1μΜ for Cc1ccc([N+](=O)[O-])cc1S(=O)(=O)N(C)/N=C/c1cnc2ccc(Br)cn12 [PIK-75, reference compound] , strictly under 90 or not?
t

Please determine if Cn1c(=O)n(-c2ccc(C(C)(C)C#N)cc2)c2c3cc(-c4cnc5ccccc5c4)ccc3ncc21 is below 90 in terms of Cell viability in kinase inhibitor library screening, IGR37 GP, 1μΜ.
t

Quick check: does COc1ccc(-c2ccc3ncc4c(c3c2)n(-c2ccc(N3CCNCC3)c(C(F)(F)F)c2)c(=O)n4C)cn1 have Cell viability in kinase inhibitor library screening, IGR37 GP, 1μΜ under 90?
t

---

system: 501Mel cells (parental); test: Kinase inhibitor library screening, PrestoBlue cell viability, 1 or 10 μM, 72 h; details: Homo sapiens, 72 h, read-out: cell viability, 501Mel Parental, 1μΜ
Form field: viability at 1 µM (one value per entry).
State just the number; it will be interpreted in %.

The compound identified as Cc1cc(Nc2cc(N3CCN(C)CC3)nc(/C=C/c3ccccc3)n2)n[nH]1 [ENMD-2076] registered its viability at 1 µM at 97

Entry O=C1Nc2ccccc2/C1=C1/Nc2ccccc2C1=O [Indirubin] ; viability at 1 µM = 104

---

test system: 501Mel cells (parental); assay: Kinase inhibitor library screening, PrestoBlue cell viability, 1 or 10 μM, 72 h; conditions: 501Mel Parental; 1μΜ; 72 h; in %
Threshold 90: cell viability, 501Mel Parental, 1μΜ strictly smaller gives class 1, otherwise class 0.

Solved entries:
[
  {
    "MOLECULE": "CNC(=O)c1ccccc1Nc1nc(Nc2ccc(N3CCOCC3)cc2OC)ncc1Cl",
    "ASSAYED SYSTEM": "501Mel cells (parental)",
    "ANSWER LABEL": "class 1"
  },
  {
    "MOLECULE": "COc1cc2ncnc(Nc3cccc(Br)c3)c2cc1OC.Cl [PD153035 HCl]",
    "ASSAYED SYSTEM": "501Mel cells (parental)",
    "ANSWER LABEL": "class 0"
  }
]

Dear colleague, could you confirm whether cell viability, 501Mel Parental, 1μΜ of CCN1CCN(Cc2ccc(-c3cc4c(N[C@H](C)c5ccccc5)ncnc4[nH]3)cc2)CC1 falls below 90? Thanks.
class 0

Criterion: cell viability, 501Mel Parental, 1μΜ strictly below 90. Is it met by CC(C)(C)c1cc(C=C(C#N)C#N)cc(Br)c1O ?
class 0

Please state whether cell viability, 501Mel Parental, 1μΜ is below 90 for CN1CCN(c2cccc(Nc3nc4c(-c5ccc(S(C)(=O)=O)cc5)cccn4n3)c2)CC1
class 0

is_below(cell viability, 501Mel Parental, 1μΜ, 90) for C#Cc1cccc(Nc2ncnc3cc(OCCOC)c(OCCO)cc23)c1 ?
class 0

Is 90 strictly greater than the molecule's reported cell viability, 501Mel Parental, 1μΜ? molecule: CC(O)C(=O)O.CC(O)C(=O)O.CN1CCN(c2ccc3nc(-c4c(N)c5c(F)cccc5[nH]c4=O)[nH]c3c2)CC1
class 0

---

test system: 501Mel cells (parental); experiment: Kinase inhibitor library screening, PrestoBlue cell viability, 1 or 10 μM, 72 h; details: 501Mel Parental, 10μΜ; in %
# cell viability (kinase inhibitor library screening) per entry

[
  {
    "COMPOUND": "CN(C)CCOc1ccc(-c2nc(-c3ccncc3)c(-c3ccc4c(c3)CC/C4=N\\O)[nH]2)cc1 [SB590885]",
    "VALUE REPORTED": 0.649
  },
  {
    "COMPOUND": "O=C(Cc1ccc(-c2ccc(OCCN3CCOCC3)cc2)cn1)NCc1ccccc1 [KX2-391, reference compound]",
    "VALUE REPORTED": 24.4
  },
  {
    "COMPOUND": "COc1cc2nccc(Oc3ccc(NC(=O)C4(C(=O)Nc5ccc(F)cc5)CC4)cc3)c2cc1OC [XL-184 free base (Cabozantinib)]",
    "VALUE REPORTED": 73.6
  }
]

We now examine a further compound.
# cell viability (kinase inhibitor library screening) (compound: N#CC1(c2ccc(NC(=O)c3cccnc3NCc3ccncc3)cc2)CCCC1 [Apatinib (YN968D1)] ) is 103.9
